Origin of measurements: PubChem BioAssay (NCI)

Experiment: NCI Yeast Anticancer Drug Screen. Data for the sgs1 mgt1 strain (AID 161);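 also: 0% = growth of cultures given vehicle only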
Settings: S. cerevisiae sgs1 mgt1 strain, at 50.0 µM, hits give high values
Compounds without any hit were thinned out: in the full panel of roughly 79,000, 15% have a hit.
reported-property: growth inhibition (%)
Write it as a number; the unit % goes unstated.

molecule	units-label	growth inhibition
Cc1cc(C)c(N)c(C)n1	%	-22.1
O=C1CC(NC(=O)c2ccccc2)C(=O)O1 (configuration not stated)	%	18.8
CCOC(=O)c1nnsc1NC(=O)Nc1ccc(Cl)cc1	%	-3.4

# lookup: growth inhibition of O=C(O)/C=C/c1c2ccc(=O)c(O)c-2oc2c(O)c(O)ccc12
13.9

# lookup: growth inhibition of CCOC(=O)C1CN2C(=O)CCC2C1=O (configuration not stated)
8.7

# lookup: growth inhibition of COc1ccc(/C(C)=N/[O-])cc1CS[n+]1ccccc1
47.4

# lookup: growth inhibition of N#CC(C#N)=NNc1ccc2cn[nH]c2c1
2.7

# lookup: growth inhibition of c1ccc2c(N=C(Nc3cccc4ccccc34)c3cccc4ccccc34)cccc2c1
35.8

# lookup: growth inhibition of CN1CCc2c1nc(-c1ccc([N+](=O)[O-])cc1)c1c2N(C)CC1
2.8

# lookup: growth inhibition of CNC1C(CO)OC(n2cnc3c(=O)[nH]cnc32)C1O (configuration not stated)
-11.4

# lookup: growth inhibition of CCn1c2ccccc2c2cc(N=Nc3cc(N)ccc3N(C)C)ccc21
-9.1

# lookup: growth inhibition of COc1ccc(CC[N+]2=Cc3cc(OC)c(OC)cc3CC2)cc1OC
12.6

###

Some molecules, each annotated with its measured growth inhibition.
Test: NCI Yeast Anticancer Drug Screen. Data for the mec2-1 strain (AID 157)
Conditions: S. cerevisiae mec2-1 strain, at 50.0 µM, hits give high values
The panel holds about 79,000 compounds, 15% with a hit somewhere; the sample as a whole holds those more often.
Write it as a number; the unit % goes unstated.

Use these answered entries as a reference point.
molecule	growth inhibition, %
COC(=O)c1ccc(C(=O)OC)c(NC(=O)CC(=O)c2ccc([N+](=O)[O-])cc2)c1	18.9
COc1ccccc1-n1on1-c1ccccc1OC	18.1
COc1cc(OC)cc(C(NC(C)=O)NC(C)=O)c1	2.55
O=C(CC/C(CC(=O)c1ccc(Cl)cc1)=N\O)Nc1cccc(Cl)c1	-2.4
N#Cc1c(C#N)c(-c2cccc([N+](=O)[O-])c2)n(-c2ccccc2)c1N	15.5

# lookup: growth inhibition of O=C1C2C3C=CC(O3)C2C(=O)N1CCN1CCCCC1 (stereo not given)
-4.8

# lookup: growth inhibition of O=C1C=CC(=O)c2c1ccc1c3ccccc3n(CCCCCn3c4ccccc4c4ccc5c(c43)C(=O)C=CC5=O)c21
-9.85

###

Assay: NCI Yeast Anticancer Drug Screen. Data for the mec2-1 strain (AID 157)
Details: S. cerevisiae mec2-1 strain, at 50.0 µM, hits give high values
This is part of a sample that, as a whole, favours compounds with a hit. Of some 79,000 tested, about 15% had one in any assay.
Some molecules, each annotated with its measured growth inhibition.
Write it as a number; the unit % goes unstated.

Use these answered entries as a reference point.
molecule	units-label	growth inhibition
CSCCC(NC(=O)c1cnc2ccccc2c1)C(N)=O (centres undefined)	%	-4.85
Cc1ccccc1C1OC(=O)c2ccc3ccccc3c21 (centres undefined)	%	1.8
CC1=CCC2(C#N)CCC1C2O (centres undefined)	%	17.8
Nc1nc(N)c2nc(CNc3ccc(C(=O)NC(CCCNC(=O)c4ccccc4C(=O)O)C(=O)O)cc3)cnc2n1 (centres undefined)	%	30.4
c1ccc(-c2cn3c(nc4ccccc43)c(-c3ccccc3)n2)cc1	%	-7.15
CCCCCCCCCCCCSCC(=O)O	%	10.8

# lookup: growth inhibition of Clc1ccc2cn[nH]c2c1
-28.1

# lookup: growth inhibition of COC(=O)c1nc(NN)[nH]c(=O)c1C
-21.1

###

Some compounds, each annotated with its measured growth inhibition.
Assay: NCI Yeast Anticancer Drug Screen. Data for the sgs1 mgt1 strain (AID 161);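 also: 0% = growth of cultures given vehicle only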
Conditions: S. cerevisiae sgs1 mgt1 strain, at 50.0 µM, hits give high values
Compounds without any hit were thinned out: in the full panel of roughly 79,000, 15% have a hit. Active and inactive are the calls of the source. Rule as the data show it: active = growth inhibition above about 70%; inactive = the rest.

Use these answered entries as a reference point.
structure-smiles-string	reported-property	observed-value
O=c1c2ccccc2nc2sc3nc4ccccc4c(=O)n3n12	growth inhibition	-8.85% (inactive)
N/C(=N\OC(=O)NC(Cl)=C(Cl)Cl)c1ccc(Cl)cc1	growth inhibition	7.4% (inactive)
CCOc1c(/C=C\c2cc(/C=C/c3cccc(OC)c3OCC)c([N+](=O)[O-])cc2[N+](=O)[O-])cccc1OC	growth inhibition	1.75% (inactive)
O=C(O)c1cc(=O)c2cc(Cc3ccccc3)ccc2[nH]1	growth inhibition	10.4% (inactive)
CCc1occc(=O)c1O	growth inhibition	-1.75% (inactive)

# lookup: growth inhibition of CN(C=O)/C=C/c1cc(O)ccc1O
-1.6% (inactive)

# lookup: growth inhibition of BrCCCOc1ccccc1
-5.65% (inactive)

# lookup: growth inhibition of CCCCCCCCCc1ccc(OCCOC(=O)OCCOc2ccc(CCCCCCCCC)cc2)cc1
16% (inactive)

# lookup: growth inhibition of Clc1ccccc1CN1COc2c(ccc3ccccc23)C1
32.6% (inactive)

# lookup: growth inhibition of CCCCCCCCCCCCOc1ccc(F)cc1C
0.45% (inactive)

# lookup: growth inhibition of O=C(O)C(=O)c1ccc(O)cc1O
-8.15% (inactive)

# lookup: growth inhibition of Cc1c(C(=O)C/C(=N\O)C(=O)Nc2cc(Cl)c(Cl)cc2Cl)[n+](=O)c2ccccc2n1[O-]
22.1% (inactive)

###

Assay: NCI Yeast Anticancer Drug Screen. Data for the cln2 rad14 strain (AID 165);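 also: 0% = growth equal to vehicle treated cultures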
Conditions: S. cerevisiae cln2 rad14 strain, at 50.0 µM, hits give high values
Protocol: Growth inhibition of yeast strains with defined genetic alterations is measured as a screen for potential anti-cancer activity. Selected strains with alterations in DNA damage repair or cell cycle control were exposed to compounds and growth inhibition was measured relative to vehicle treated controls. The strain used in this assay is cln2 rad14
About 79,000 compounds went through this panel and 15% of them were active in at least one assay; those are over-represented in the sample as a whole.
reported-property: growth inhibition (%)
Write it as a number; the unit % goes unstated.

Use these answered entries as a reference point.
molecule	units-label	growth inhibition
O=C(O)C1CC=CCC1C(=O)O (stereo unspecified)	%	-45.9
CC(C)=NNC(=O)c1n[nH]c(C)c1N=NN(C)C	%	-0.65
CC(O)CCC(O)CCCO (stereo unspecified)	%	-17.1
O=C(/C=C/c1c[nH]c2ccccc12)c1ccccc1[N+](=O)[O-]	%	-7.7
CSCCC(NC(=O)c1c(Cl)ccc(Cl)c1Cl)C(=O)O (stereo unspecified)	%	-18.6

# lookup: growth inhibition of C1CCC(C(CCCCC(C2CCCCC2)C2CCCCC2)C2CCCCC2)CC1
16.1

###

Assay: NCI Yeast Anticancer Drug Screen. Data for the mec2-1 strain (AID 157)
Settings: S. cerevisiae mec2-1 strain, at 50.0 µM, hits give high values
This is part of a sample that, as a whole, favours compounds with a hit. Of some 79,000 tested, about 15% had one in any assay.
reported-property: growth inhibition (%)
Write it as a number; the unit % goes unstated.

Use these answered entries as a reference point.
compound	growth inhibition (%)
CCOC(NCc1ccc(OC)c(OC)c1)OCC	-11.8
O=C1OC2C(O)C3CC1C2O3 (configuration not stated)	-6.05
CCCCC(CCCC)(C(=O)NC)c1ccccc1	6.65
Cc1cc2nc(/C(C#N)=C/c3cc(Cl)cc(Cl)c3O)[nH]c2cc1C	22.4
Clc1ccc(CSc2cnnc(Cl)c2SCc2ccc(Cl)cc2)cc1	-4.5

# lookup: growth inhibition of C=CC(C/C(C)=N/Nc1ccc([N+](=O)[O-])cc1[N+](=O)[O-])c1ccccc1 (configuration not stated)
-4.85

# lookup: growth inhibition of CCOc1ccc(S(=O)(=O)OCC)cc1
-14

# lookup: growth inhibition of CCOC(=O)NCCNC(=O)OCC
0.3

# lookup: growth inhibition of c1ccc2c(c1)CCc1ccccc1N=N2
-1.55

# lookup: growth inhibition of Cc1ccc(NCCN(C)C)c2c(=O)c3cccc(O)c3sc12
35.1

# lookup: growth inhibition of COc1cccc(Nc2sc(C(=O)c3cc4cc(Cl)ccc4o3)c(N)c2C#N)c1
-8.65

# lookup: growth inhibition of CC(C)=NNC(=O)c1ccc(Cl)cc1
-25.1

###

Some compounds, each annotated with its measured growth inhibition.
Assay: NCI Yeast Anticancer Drug Screen. Data for the bub3 strain (AID 167)
Conditions: S. cerevisiae bub3 mutant strain, at 50.0 µM, hits give high values
This is part of a sample that, as a whole, favours compounds with a hit. Of some 79,000 tested, about 15% had one in any assay.
Write it as a number; the unit % goes unstated.

compound	units-label	observed-value
N/C(=N\O)c1ccccc1	%	4.35
CN(Cc1ccccc1)C(=O)c1cccc(C(=O)N(C)Cc2ccccc2)c1	%	21.7
Cn1cnc2nc(N)[nH]c(=O)c21	%	-0.95
Cc1ccc2c3c1CCCN3CCC2	%	-0.55
CC(=O)OCCOCNC(=S)NN	%	-3.95
Cc1cc(O)c(C(c2c(O)cc(C)c(Cl)c2C)C(Cl)(Cl)Cl)c(C)c1Cl	%	20.6

# lookup: growth inhibition of CCc1cc(C(C)(C)C)cc(C(C)(C)C)c1O
21.4

# lookup: growth inhibition of COc1ccc(Cl)cc1[N+](=O)[O-]
13.6

# lookup: growth inhibition of Nc1nc(N)c2ncn(-c3ccc(Cl)cc3)c2n1
-0.85

# lookup: growth inhibition of O=C1OC(=O)C2C3CCC(O3)C12 (configuration not stated)
-0.5

# lookup: growth inhibition of Cc1nc2ccccc2nc1CCO
-24.8

# lookup: growth inhibition of CN(C)C(=O)C1(C)CC2CCC1C2 (configuration not stated)
2.8

# lookup: growth inhibition of COc1ccc(NC(=O)CC(=O)N2N=C(N(CCC#N)c3ccccc3Cl)CC2c2ccccc2)cc1 (configuration not stated)
-4.55
